- target under test: human wild type STING (WT STING) (Homo sapiens, UniProt Q86WV6, H232R)
- Construct: host or cells: 293T cells (ATCC CRL-3216), stably double transfected with pUNO1-hSTING-WT and pGL64.27-4×ISRE
- Sequence (Q86WV6 whole entry H232R): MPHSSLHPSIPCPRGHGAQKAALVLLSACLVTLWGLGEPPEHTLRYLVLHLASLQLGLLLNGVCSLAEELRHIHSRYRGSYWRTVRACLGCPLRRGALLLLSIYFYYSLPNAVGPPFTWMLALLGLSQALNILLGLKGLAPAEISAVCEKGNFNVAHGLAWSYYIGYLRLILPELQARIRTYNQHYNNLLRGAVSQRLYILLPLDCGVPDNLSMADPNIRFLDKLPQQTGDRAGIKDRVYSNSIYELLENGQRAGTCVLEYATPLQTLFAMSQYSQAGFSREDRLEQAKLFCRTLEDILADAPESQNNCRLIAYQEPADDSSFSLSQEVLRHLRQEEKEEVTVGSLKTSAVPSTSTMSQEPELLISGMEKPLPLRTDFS
- protocol summary: 293T WT STING standard reporter assay
- Format: cell-based
- settings: 293T wtSTING-FL cells, no digitonin, 7 hours; ISRE firefly luciferase; read-out: 293T WT STING EC50
pEC50: −log10 of the molar value.
parameter: pEC50

# count of solved cases: 2
molecule: CCC(C)(C)C(=O)OCOP1(=O)CO[C@H]2[C@@H](F)[C@H](n3cnc4c(N)ncnc43)O[C@@H]2COP(=O)(OCOC(=O)C(C)(C)CC)O[C@H]2[C@@H](F)[C@H](n3cnc4c(N)ncnc43)O[C@@H]2CO1 (mixture of isomers) [Compound 44b]
value observed: 8.00
--
molecule: CCCCCCCC(=O)OCOP1(=O)CO[C@H]2[C@@H](F)[C@H](n3cnc4c(N)ncnc43)O[C@@H]2COP(=O)(OCOC(=O)CCCCCCC)O[C@H]2[C@@H](F)[C@H](n3cnc4c(N)ncnc43)O[C@@H]2CO1 (single isomer, unassigned) [Compound 46a]
value observed: 8.30

[a] CC1(C(=O)OCOP2(=O)CO[C@H]3[C@@H](F)[C@H](n4cnc5c(N)ncnc54)O[C@@H]3COP(=O)(OCOC(=O)C3(C)CCCCC3)O[C@H]3[C@@H](F)[C@H](n4cnc5c(N)ncnc54)O[C@@H]3CO2)CCCCC1 (mixture of isomers) [Compound 45b]
[b] Nc1ncnc2c1ncn2[C@@H]1O[C@@H]2COP(=O)(S)O[C@H]3[C@@H](F)[C@H](n4cnc5c(N)ncnc54)O[C@@H]3COP(=O)(S)CO[C@H]2[C@H]1F (single isomer, unassigned) [Compound 14a]
q: // compare: a vs b , metric pEC50, want the smaller Please identify the chosen entry by its label.
a: b
(b: 4.82, a: 7.52)

---

- target under test: human wild type STING (WT STING) (Homo sapiens, UniProt Q86WV6, H232R)
- Construct: host or cells: 293T cells (ATCC CRL-3216), stably double transfected with pUNO1-hSTING-WT and pGL64.27-4×ISRE
- protocol summary: 293T WT STING standard reporter assay
- Assay type: cell-based
- settings: 293T wtSTING-FL cells, no digitonin, 7 hours; ISRE firefly luciferase; read-out: 293T WT STING EC50
parameter: EC50 (nM)

Recorded results for 2 compounds are shown here.
compound: CCC(C)(C)C(=O)OCOP1(=O)CO[C@H]2[C@@H](F)[C@H](n3cnc4c(N)ncnc43)O[C@@H]2COP(=O)(OCOC(=O)C(C)(C)CC)O[C@H]2[C@@H](F)[C@H](n3cnc4c(N)ncnc43)O[C@@H]2CO1 (single isomer, unassigned) [Compound 44c]
value observed: 6
--
compound: CCCCCCCC(=O)OCOP1(=O)CO[C@H]2[C@@H](F)[C@H](n3cnc4c(N)ncnc43)O[C@@H]2COP(=O)(OCOC(=O)CCCCCCC)O[C@H]2[C@@H](F)[C@H](n3cnc4c(N)ncnc43)O[C@@H]2CO1 (single isomer, unassigned) [Compound 46c]
value observed: 1

[a] Nc1ncnc2c1ncn2[C@@H]1O[C@@H]2COP(=O)(S)O[C@H]3[C@@H](F)[C@H](n4cnc5c(N)ncnc54)O[C@@H]3COP(=O)(S)CO[C@H]2[C@H]1F (single isomer, unassigned) [Compound 14c]
[b] CC(C)OC(=O)OCOP1(=O)CO[C@H]2[C@@H](F)[C@H](n3cnc4c(N)ncnc43)O[C@@H]2COP(=O)(OCOC(=O)OC(C)C)O[C@H]2[C@@H](F)[C@H](n3cnc4c(N)ncnc43)O[C@@H]2CO1 (single isomer, unassigned) [Compound 42a]
q: # return whichever of a and b has the smaller EC50 Answer = label.
a: a
(a: 300 nM, b: 8100 nM)

---

- target under test: human wild type STING (WT STING) (Homo sapiens, UniProt Q86WV6, H232R)
- Construct: host or cells: 293T cells (ATCC CRL-3216), stably double transfected with pUNO1-hSTING-WT and pGL64.27-4×ISRE
- protocol summary: 293T WT STING standard reporter assay
- Format: cell-based
- settings: 293T wtSTING-FL cells, no digitonin, 7 hours; ISRE firefly luciferase; read-out: 293T WT STING EC50
parameter: EC50 (µM)

[1] Nc1ncnc2c1ncn2[C@@H]1O[C@@H]2COP(=O)(O)O[C@H]3[C@@H](O)[C@H](n4cnc5c(N)ncnc54)O[C@@H]3COP(=O)(O)O[C@H]2[C@H]1O [3′3′-c-di-AMP, reference compound]
[2] CCC(C)(C)C(=O)OCOP1(=O)CO[C@H]2[C@@H](F)[C@H](n3cnc4c(N)ncnc43)O[C@@H]2COP(=O)(OCOC(=O)C(C)(C)CC)O[C@H]2[C@@H](F)[C@H](n3cnc4c(N)ncnc43)O[C@@H]2CO1 (single isomer, unassigned) [Compound 44a]
q: Just curious, which one has the larger EC50 reading, 1 or 2 ? Identify your selection by its label.
a: 1
(1: 202 µM, 2: 0.01 µM)

[A] CC(C)OC(=O)OCOP1(=O)CO[C@H]2[C@@H](F)[C@H](n3cnc4c(N)ncnc43)O[C@@H]2COP(=O)(OCOC(=O)OC(C)C)O[C@H]2[C@@H](F)[C@H](n3cnc4c(N)ncnc43)O[C@@H]2CO1 (mixture of isomers) [Compound 42b]
[B] Nc1ncnc2c1ncn2[C@@H]1O[C@@H]2COP(=O)(O)O[C@H]3[C@@H](F)[C@H](n4cnc5c(N)ncnc54)O[C@@H]3COP(=O)(O)CO[C@H]2[C@H]1F [Compound 21]
q: Min EC50? A | B Answer by stating the label of the chosen item.
a: A

---

- target under test: human wild type STING (WT STING) (Homo sapiens, UniProt Q86WV6, H232R)
- Construct: host or cells: 293T cells (ATCC CRL-3216), stably double transfected with pUNO1-hSTING-WT and pGL64.27-4×ISRE
- protocol summary: Digitonin assay using 293T wtSTING-FL reporter cells
- Type: cell-based
- settings: 293T wtSTING-FL cells, digitonin buffer 30 minutes, then 5 hours; ISRE firefly luciferase
parameter: EC50 (nM)

The examples below pair each entry with its known result.
compound: Nc1nc2c(ncn2[C@@H]2O[C@@H]3COP(=O)(O)O[C@@H]4[C@H](O)[C@@H](COP(=O)(O)O[C@@H]2[C@@H]3O)O[C@H]4n2cnc3c(N)ncnc32)c(=O)[nH]1 [2′2′-cGAMP, reference compound]
parameter: EC50
value observed: 30

compound: Nc1ncnc2c1ncn2[C@@H]1O[C@@H]2COP(=O)(S)O[C@H]3[C@@H](F)[C@H](n4cnc5c(N)ncnc54)O[C@@H]3COP(=O)(S)CO[C@H]2[C@H]1F (single isomer, unassigned) [Compound 14c]
parameter: EC50
value observed: 7

compound: Nc1ncnc2c1ncn2[C@@H]1O[C@@H]2COP(=O)(O)O[C@H]3[C@@H](F)[C@H](n4cnc5c(N)ncnc54)O[C@@H]3COP(=O)(O)CO[C@H]2[C@H]1F
parameter: EC50
value observed: 10

[1] Nc1ncnc2c1ncn2[C@@H]1O[C@@H]2COP(=O)(O)O[C@H]3[C@@H](O)[C@H](n4cnc5c(N)ncnc54)O[C@@H]3COP(=O)(O)O[C@H]2[C@H]1O [3′3′-c-di-AMP, reference compound]
[2] Nc1ncnc2c1ncn2[C@@H]1O[C@@H]2COP(=O)(S)O[C@H]3[C@@H](F)[C@H](n4cnc5c(N)ncnc54)O[C@@H]3COP(=O)(O)CO[C@H]2[C@H]1F (single isomer, unassigned) [Compound 11a]
q: Quick check, higher EC50 between 1 and 2 ? Choose, then provide that item's label.
a: 1
(1: 300 nM, 2: 10 nM)
